System: RPMI-8226 leukemia
Assay: NCI tumour cell line growth inhibition, 48 h
Catalogue of TGI readings, one per entry.

{"columns": ["compound", "TGI"],
 "data": [
  ["COc1ccc(OC)c(-c2nc3sccn3c2/C=C2/C(=O)Nc3ccccc32)c1", "0.856 µM"]
]}

Tell me its TGI on RPMI-8226 leukemia: c1ccc(-c2cc(-c3cc(-c4ccccn4)[nH]n3)n[nH]2)nc1
> 100 µM

Give TGI only, for C=CC1=C(C)C2=NC1=CC1=NC(=C(CC)/C1=C/O)C=C1C=C3C(=O)C(C(=O)OC)C(=C4NC(=C2)C(C)C4CCC(=O)OC/C=C(\C)CCCC(C)CCCC(C)CCCC(C)C)C3=N1 (centres undefined) (tested in a mixture with another compound) , using RPMI-8226 leukemia data.
> 100 µM

Report the value of TGI obtained on RPMI-8226 leukemia for CC1=NN(C(=O)c2ccc(Cl)cc2)C(=O)/C1=C/c1cccc(O)c1 .
> 100 µM

All values here come from PubChem BioAssay (NCI).
